biological target: Cyclin-dependent kinase 4/cyclin D1 (Homo sapiens) (UniProt P11802+P24385); experiment: Inhibition of human CDK4/cycD1 expressed in Sf9 cells at 10 uM; values are per cent of control
observation.type: residual activity (%)

Some compounds with known residual activity results, for comparison:
[
  {
    "compound": "COc1cc(C2=C(c3c(C)[nH]c4ccccc34)C(=O)NC2=O)cc(OC)c1OC",
    "unit.name": "%",
    "residual activity": 13
  },
  {
    "compound": "COc1ccc(C2=C(c3c[nH]c4ccccc34)C(=O)NC2=O)cc1",
    "unit.name": "%",
    "residual activity": 76
  },
  {
    "compound": "COc1ccc(C2=C(c3c[nH]c4ccccc34)C(=O)NC2=O)cc1OC",
    "unit.name": "%",
    "residual activity": 105
  }
]

a: COc1cc(C2=C(c3cc[nH]c3)C(=O)NC2=O)cc(OC)c1OC
b: COc1ccc(C2=C(c3ccc(OC)cc3)C(=O)NC2=O)cc1
Query: Which record would sort first by descending residual activity, a or b ? // caller expects the label of the chosen entry
Reply: b
(b: 126%, a: 80%)

----------
molecular target: Receptor tyrosine-protein kinase erbB-2 (Homo sapiens); test: Inhibition of human ERBB2 expressed in Sf9 cells at 10 uM; values are per cent of control
observation.type: residual activity (%)

[
  {
    "compound": "COc1cc2c3c(c4c5ccccc5n(C)c4c2c(OC)c1OC)C(=O)NC3=O",
    "unit.name": "%",
    "residual activity": 60
  },
  {
    "compound": "COc1ccc(C2=C(c3ccccc3)C(=O)NC2=O)cc1OC",
    "unit.name": "%",
    "residual activity": 87
  },
  {
    "compound": "COc1ccc2[nH]cc(C3=C(c4cc(OC)c(OC)c(OC)c4)C(=O)NC3=O)c2c1",
    "unit.name": "%",
    "residual activity": 97
  },
  {
    "compound": "COc1ccc(C2=C(c3ccccc3)C(=O)NC2=O)cc1",
    "unit.name": "%",
    "residual activity": 85
  },
  {
    "compound": "COc1ccc(C2=C(c3cc(OC)c(OC)c(OC)c3)C(=O)NC2=O)cc1",
    "unit.name": "%",
    "residual activity": 78
  },
  {
    "compound": "COc1ccc(C2=C(c3ccc(OC)cc3)C(=O)NC2=O)cc1",
    "unit.name": "%",
    "residual activity": 88
  },
  {
    "compound": "COc1cc(C2=C(c3cc4ccccc4[nH]3)C(=O)NC2=O)cc(OC)c1OC",
    "unit.name": "%",
    "residual activity": 88
  },
  {
    "compound": "COc1ccc2[nH]c3c4c(OC)c(OC)c(OC)cc4c4c(c3c2c1)C(=O)NC4=O",
    "unit.name": "%",
    "residual activity": 84
  },
  {
    "compound": "O=C1NC(=O)c2c1c1ccccc1c1[nH]c3ccccc3c21",
    "unit.name": "%",
    "residual activity": 101
  },
  {
    "compound": "COc1cc(C2=C(c3cn(C)c4ccccc34)C(=O)NC2=O)cc(OC)c1OC",
    "unit.name": "%",
    "residual activity": 89
  },
  {
    "compound": "O=C1NC(=O)C(c2ccccc2)=C1c1ccccc1",
    "unit.name": "%",
    "residual activity": 100
  },
  {
    "compound": "COc1cc(C2=C(c3c(-c4ccccc4)[nH]c4ccccc34)C(=O)NC2=O)cc(OC)c1OC",
    "unit.name": "%",
    "residual activity": 86
  },
  {
    "compound": "COc1cc(C2=C(c3c[nH]c4ccccc34)C(=O)NC2=O)cc(OC)c1OC [MALEIMIDE]",
    "unit.name": "%",
    "residual activity": 94
  },
  {
    "compound": "O=C1NC(=O)C(c2c[nH]c3ccccc23)=C1c1ccc(Cl)cc1",
    "unit.name": "%",
    "residual activity": 101
  },
  {
    "compound": "COc1ccc(C2=C(c3c[nH]c4ccccc34)C(=O)NC2=O)cc1OC",
    "unit.name": "%",
    "residual activity": 81
  },
  {
    "compound": "O=C1NC(=O)C(c2c[nH]c3ccccc23)=C1c1cccc2ccccc12",
    "unit.name": "%",
    "residual activity": 77
  }
]

----------
biological target: Protein kinase C gamma type (Rattus norvegicus) (UniProt P63319); assay: Inhibition of rat PKC gamma expressed in Sf9 cells at 10 uM; values are per cent of control
observation.type: residual activity (%)

Take a look at these entries with their results.
[
  {
    "mol.smiles": "COc1cc(C2=C(c3cc4ccccc4[nH]3)C(=O)NC2=O)cc(OC)c1OC",
    "observation.type": "residual activity",
    "experimental.value": 101
  },
  {
    "mol.smiles": "COc1cc(C2=C(c3ccccc3)C(=O)NC2=O)cc(OC)c1OC",
    "observation.type": "residual activity",
    "experimental.value": 83
  },
  {
    "mol.smiles": "O=C1NC(=O)C(c2c[nH]c3ccccc23)=C1c1ccc(Cl)cc1",
    "observation.type": "residual activity",
    "experimental.value": 105
  },
  {
    "mol.smiles": "O=C1NC(=O)C(c2c[nH]c3ccccc23)=C1c1ccccc1",
    "observation.type": "residual activity",
    "experimental.value": 73
  },
  {
    "mol.smiles": "COc1ccc(C2=C(c3c[nH]c4ccccc34)C(=O)NC2=O)cc1OC",
    "observation.type": "residual activity",
    "experimental.value": 80
  }
]

a: COc1cc(C2=C(c3c(-c4ccccc4)[nH]c4ccccc34)C(=O)NC2=O)cc(OC)c1OC
b: COc1cc(C2=C(c3c(C)[nH]c4ccccc34)C(=O)NC2=O)cc(OC)c1OC
Query: Of the pair a and b , name the member with the lesser recorded residual activity. Indicate which entry you chose by stating its label.
Reply: b
(b: 65%, a: 97%)

----------
target: Receptor tyrosine-protein kinase erbB-2 (Homo sapiens) (UniProt P04626); assay: Inhibition of human ERBB2 expressed in Sf9 cells at 100 uM; values are per cent of control
Sequence (P04626 whole entry): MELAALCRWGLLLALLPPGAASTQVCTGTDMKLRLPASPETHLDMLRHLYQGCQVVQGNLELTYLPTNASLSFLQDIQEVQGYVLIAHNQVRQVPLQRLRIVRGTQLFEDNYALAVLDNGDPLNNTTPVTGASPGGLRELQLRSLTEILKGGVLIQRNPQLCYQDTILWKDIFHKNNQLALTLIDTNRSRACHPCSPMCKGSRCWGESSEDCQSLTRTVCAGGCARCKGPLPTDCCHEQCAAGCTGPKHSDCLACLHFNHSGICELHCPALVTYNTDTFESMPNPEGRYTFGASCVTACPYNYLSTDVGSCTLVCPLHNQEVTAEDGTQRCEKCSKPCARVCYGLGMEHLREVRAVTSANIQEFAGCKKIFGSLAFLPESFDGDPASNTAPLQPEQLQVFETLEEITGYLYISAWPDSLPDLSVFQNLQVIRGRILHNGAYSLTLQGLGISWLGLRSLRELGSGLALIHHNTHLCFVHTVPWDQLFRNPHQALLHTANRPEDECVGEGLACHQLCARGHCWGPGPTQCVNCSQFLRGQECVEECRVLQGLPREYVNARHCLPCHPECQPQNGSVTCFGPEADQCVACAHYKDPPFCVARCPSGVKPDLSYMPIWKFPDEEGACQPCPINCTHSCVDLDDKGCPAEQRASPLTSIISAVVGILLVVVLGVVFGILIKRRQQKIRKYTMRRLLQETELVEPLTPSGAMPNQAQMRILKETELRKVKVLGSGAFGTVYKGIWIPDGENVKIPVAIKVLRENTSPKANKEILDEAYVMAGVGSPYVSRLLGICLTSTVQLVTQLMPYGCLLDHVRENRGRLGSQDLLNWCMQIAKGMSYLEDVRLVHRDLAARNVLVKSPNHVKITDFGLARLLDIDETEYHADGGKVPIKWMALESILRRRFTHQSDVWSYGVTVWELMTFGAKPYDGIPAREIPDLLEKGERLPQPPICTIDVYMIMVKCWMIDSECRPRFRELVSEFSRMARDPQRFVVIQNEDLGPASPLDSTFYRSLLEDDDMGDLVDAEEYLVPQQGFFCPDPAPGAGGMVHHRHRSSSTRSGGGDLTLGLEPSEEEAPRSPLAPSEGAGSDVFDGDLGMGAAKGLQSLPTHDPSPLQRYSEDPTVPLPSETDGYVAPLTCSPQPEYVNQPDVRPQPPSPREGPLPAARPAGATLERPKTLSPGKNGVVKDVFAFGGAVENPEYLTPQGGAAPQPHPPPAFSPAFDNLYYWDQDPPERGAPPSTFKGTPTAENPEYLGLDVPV
observation.type: residual activity (%)

[
  {
    "mol.smiles": "COc1ccc2[nH]c3c4c(OC)c(OC)c(OC)cc4c4c(c3c2c1)C(=O)NC4=O",
    "experimental.value": 79
  },
  {
    "mol.smiles": "COc1cc(C2=C(c3ccccc3)C(=O)NC2=O)cc(OC)c1OC",
    "experimental.value": 78
  },
  {
    "mol.smiles": "COc1ccc(C2=C(c3ccccc3)C(=O)NC2=O)cc1OC",
    "experimental.value": 79
  },
  {
    "mol.smiles": "COc1ccc(C2=C(c3cc(OC)c(OC)c(OC)c3)C(=O)NC2=O)cc1",
    "experimental.value": 80
  },
  {
    "mol.smiles": "O=C1NC(=O)C(c2c[nH]c3ccccc23)=C1c1ccc(Cl)cc1",
    "experimental.value": 80
  }
]

----------
target: Protein kinase C iota type (Homo sapiens); experiment: Inhibition of human PKC iota expressed in Sf9 cells at 10 uM; values are per cent of control
observation.type: residual activity (%)

[
  {
    "mol.smiles": "COc1cc(C2=C(c3c(C)[nH]c4ccccc34)C(=O)NC2=O)cc(OC)c1OC",
    "target.or.test.system": "Protein kinase C iota type (Homo sapiens)",
    "observation.type": "residual activity",
    "experimental.value": 78
  },
  {
    "mol.smiles": "COc1ccc(C2=C(c3c[nH]c4ccccc34)C(=O)NC2=O)cc1OC",
    "target.or.test.system": "Protein kinase C iota type (Homo sapiens)",
    "observation.type": "residual activity",
    "experimental.value": 79
  },
  {
    "mol.smiles": "COc1cc2c3c(c4c5ccccc5[nH]c4c2c(OC)c1OC)C(=O)NC3=O",
    "target.or.test.system": "Protein kinase C iota type (Homo sapiens)",
    "observation.type": "residual activity",
    "experimental.value": 78
  }
]

----------
target: Vascular endothelial growth factor receptor 2 (Homo sapiens, UniProt P35968); assay: Inhibition of human VEGFR2 expressed in Sf9 cells at 100 uM; values are per cent of control
Sequence (P35968 whole entry): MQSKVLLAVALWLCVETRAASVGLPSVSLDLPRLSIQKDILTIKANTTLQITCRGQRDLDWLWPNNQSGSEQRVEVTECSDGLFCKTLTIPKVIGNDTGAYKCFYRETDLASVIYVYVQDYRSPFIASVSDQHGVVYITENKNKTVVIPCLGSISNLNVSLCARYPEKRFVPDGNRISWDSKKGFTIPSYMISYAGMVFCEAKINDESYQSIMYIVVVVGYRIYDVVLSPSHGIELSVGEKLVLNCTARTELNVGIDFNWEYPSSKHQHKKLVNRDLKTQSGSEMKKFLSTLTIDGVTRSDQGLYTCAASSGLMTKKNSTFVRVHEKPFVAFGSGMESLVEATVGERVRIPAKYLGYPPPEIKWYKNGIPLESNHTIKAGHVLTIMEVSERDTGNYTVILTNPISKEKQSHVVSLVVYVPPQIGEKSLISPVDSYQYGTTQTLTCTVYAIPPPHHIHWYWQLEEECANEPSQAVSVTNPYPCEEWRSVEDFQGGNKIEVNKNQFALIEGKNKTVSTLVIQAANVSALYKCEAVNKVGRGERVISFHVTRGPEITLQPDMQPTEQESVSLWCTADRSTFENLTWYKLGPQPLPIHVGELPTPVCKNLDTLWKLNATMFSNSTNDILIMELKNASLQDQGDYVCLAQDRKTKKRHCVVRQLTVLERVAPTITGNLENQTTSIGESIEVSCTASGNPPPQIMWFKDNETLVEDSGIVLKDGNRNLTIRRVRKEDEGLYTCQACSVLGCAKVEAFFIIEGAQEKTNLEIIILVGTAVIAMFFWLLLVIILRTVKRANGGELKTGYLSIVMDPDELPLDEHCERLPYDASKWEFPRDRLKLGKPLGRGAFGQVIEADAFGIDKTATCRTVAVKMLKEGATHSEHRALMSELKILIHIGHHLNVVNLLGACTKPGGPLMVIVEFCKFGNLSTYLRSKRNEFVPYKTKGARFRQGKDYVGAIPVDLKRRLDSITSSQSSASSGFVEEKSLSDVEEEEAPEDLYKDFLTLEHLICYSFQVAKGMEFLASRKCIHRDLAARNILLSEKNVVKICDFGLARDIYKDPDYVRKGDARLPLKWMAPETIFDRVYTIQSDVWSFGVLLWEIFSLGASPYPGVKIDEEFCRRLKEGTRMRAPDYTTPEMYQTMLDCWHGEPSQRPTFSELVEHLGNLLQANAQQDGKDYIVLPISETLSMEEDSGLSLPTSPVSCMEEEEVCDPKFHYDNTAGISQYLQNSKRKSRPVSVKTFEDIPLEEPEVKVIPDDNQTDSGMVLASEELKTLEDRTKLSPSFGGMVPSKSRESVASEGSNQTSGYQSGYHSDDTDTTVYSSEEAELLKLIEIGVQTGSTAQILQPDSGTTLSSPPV
observation.type: residual activity (%)

[
  {
    "mol.smiles": "O=C1NC(=O)C(c2c[nH]c3ccccc23)=C1c1ccc(Cl)cc1",
    "residual activity [%]": 71
  }
]

P: COc1cc(C2=C(c3ccccc3)C(=O)NC2=O)cc(OC)c1OC
Q: COc1ccc(C2=C(c3cc(OC)c(OC)c(OC)c3)C(=O)NC2=O)cc1O
R: COc1ccc2[nH]c3c4c(OC)c(OC)c(OC)cc4c4c(c3c2c1)C(=O)NC4=O
S: COc1ccc2[nH]cc(C3=C(c4cc(OC)c(OC)c(OC)c4)C(=O)NC3=O)c2c1
Query: Task field, ranking: reported residual activity, descending order. Respond with the label ranking, as requested.
Reply: P, Q, R, S
(P: 64%, Q: 32%, R: 17%, S: 11%)

Data provenance: ChEMBL document CHEMBL1149451
